Molecular target: T1, human CXCR2 (human, UniProt P25025 1-360)
T1 construct: also called CXC chemokine receptor 2; hCXCR2
T1 sequence: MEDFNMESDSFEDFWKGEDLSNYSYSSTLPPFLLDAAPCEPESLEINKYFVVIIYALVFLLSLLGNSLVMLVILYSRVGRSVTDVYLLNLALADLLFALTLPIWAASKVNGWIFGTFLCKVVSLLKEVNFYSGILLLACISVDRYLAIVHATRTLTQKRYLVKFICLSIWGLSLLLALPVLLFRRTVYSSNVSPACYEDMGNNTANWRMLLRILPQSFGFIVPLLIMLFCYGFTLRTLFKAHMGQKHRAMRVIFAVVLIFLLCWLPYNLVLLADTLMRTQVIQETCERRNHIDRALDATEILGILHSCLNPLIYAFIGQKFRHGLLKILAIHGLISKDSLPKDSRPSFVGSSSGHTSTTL
Test: flow cytometry, CXCR2-transfected Expi293F cells
observation.type: Fold Improvement over 4A8 WT (fold)
Quick reminder: number only, in fold, skip the unit.

// worked examples, Fold Improvement over 4A8 WT included
BKO-4A8 combinatorial variant 4c (antibody, human IgG4 S228P, lambda, V domains shown, IgG4 S228P, lambda) VH: EVQLLESGGGLVQPGGSLRLSCAASGFTFSSSTQSWVRQPPGKGLEWVSAISGRGRSTYYADSVKGRFTISRDNSRNTLYLQMNSLRAEDTAVYYCAIQKGYWGQGILVTVSS VL: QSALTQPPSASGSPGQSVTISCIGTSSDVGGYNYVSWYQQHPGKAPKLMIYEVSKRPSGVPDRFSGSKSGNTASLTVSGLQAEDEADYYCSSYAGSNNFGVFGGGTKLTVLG | 1.25
BKO-4A8 combinatorial variant 1c (antibody, human IgG4 S228P, lambda, V domains shown, IgG4 S228P, lambda) VH: EVQLLESGGGLVQPGGSLRLSCAASGFTFSSSTQSWVRQAPGKGLEWVSAISGRGRSTYYADSVKGRFTISRDNSRNTLYLQMNSLRAEDTAVYYCAIQMGYWGQGILVTVSS VL: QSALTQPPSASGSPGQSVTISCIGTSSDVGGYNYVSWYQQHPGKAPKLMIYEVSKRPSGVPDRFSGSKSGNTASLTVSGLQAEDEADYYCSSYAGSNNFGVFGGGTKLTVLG | 1.33

Pending binder:
// Fold Improvement over 4A8 WT lookup, key: BKO-4A8 combinatorial variant 9c (antibody, human IgG4 S228P, lambda, V domains shown, IgG4 S228P, lambda) VH: EVQLLESGGGLVQPGGSLRLSCAASGFTFSSSTQSWVRQAPGKGLEWVSAISGRGRSTYYADSVKGRFTISRDNSKNTLYLQMNSLRAEDTAVYYCAIQKGYWGQGILVTVSS VL: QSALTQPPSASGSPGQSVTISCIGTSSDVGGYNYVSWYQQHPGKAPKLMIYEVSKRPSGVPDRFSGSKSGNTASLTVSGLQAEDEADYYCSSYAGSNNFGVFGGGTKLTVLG
0.14
